The values you see were collected from patent US20220056037A1.

system: PAXF BxPC-3; assay: 2D cell proliferation assay (CellTiter-Blue); type: cell-based; details: Homo sapiens, 72 h; cell line PAXF BxPC-3; three days of treatment; read-out: IC (abs. IC50)
property: IC50 (nM)
Just the number in nM, nothing appended.

Quote IC50 reported for CN1CCN(c2ccc(Nc3ncc4cc(C(=O)N(C)C)n(C56CC(C5)C6)c4n3)cc2)CC1 please.
193

###

target: CDK7 CyclinH (Homo sapiens, UniProt P50613); experiment: Inhibition assay, microfluidic LabChip (Nanosyn); format: biochemical; details: Table 3b;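 further: values are IC50 from a concentration-response series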
Sequence (P50613 whole entry): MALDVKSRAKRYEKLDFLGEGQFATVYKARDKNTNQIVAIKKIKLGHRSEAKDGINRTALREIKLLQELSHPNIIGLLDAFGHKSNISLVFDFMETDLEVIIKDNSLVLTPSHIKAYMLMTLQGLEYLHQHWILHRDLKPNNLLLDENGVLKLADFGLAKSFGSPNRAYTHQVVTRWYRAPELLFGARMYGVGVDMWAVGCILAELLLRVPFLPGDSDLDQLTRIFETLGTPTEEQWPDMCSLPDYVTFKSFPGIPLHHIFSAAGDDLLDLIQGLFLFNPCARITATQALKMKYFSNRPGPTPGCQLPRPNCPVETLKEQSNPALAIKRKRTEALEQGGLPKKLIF
Sequence (P51946 whole entry partner): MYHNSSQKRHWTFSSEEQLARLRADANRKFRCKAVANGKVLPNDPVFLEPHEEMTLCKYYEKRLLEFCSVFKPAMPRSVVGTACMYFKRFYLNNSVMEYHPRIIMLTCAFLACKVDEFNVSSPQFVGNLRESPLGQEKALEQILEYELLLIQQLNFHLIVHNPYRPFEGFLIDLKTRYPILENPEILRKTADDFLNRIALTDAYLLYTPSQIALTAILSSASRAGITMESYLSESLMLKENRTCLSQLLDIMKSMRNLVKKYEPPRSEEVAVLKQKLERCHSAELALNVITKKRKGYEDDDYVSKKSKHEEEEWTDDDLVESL
Sequence (P51948 whole entry partner): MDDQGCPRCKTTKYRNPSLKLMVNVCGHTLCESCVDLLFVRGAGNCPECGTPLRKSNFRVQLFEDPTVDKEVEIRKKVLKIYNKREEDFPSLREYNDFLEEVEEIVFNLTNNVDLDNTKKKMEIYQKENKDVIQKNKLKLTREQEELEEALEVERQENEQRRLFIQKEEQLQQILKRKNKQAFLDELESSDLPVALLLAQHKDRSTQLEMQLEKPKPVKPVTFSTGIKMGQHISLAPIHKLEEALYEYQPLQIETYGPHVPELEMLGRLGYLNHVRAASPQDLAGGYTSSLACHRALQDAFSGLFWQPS
pIC50 values, listed per item
pIC50 is defined as minus the log10 of a concentration measured in mol/L.

Example results:
[[record]]
compound = "CC1CN(c2ccc(Nc3ncc4cc(C(=O)N(C)C)n(C56CC(C5)C6)c4n3)cc2)CC(C)N1 (stereo not shown)"
property = "pIC50"
test_value = 5.25

[[record]]
compound = "CC(C)N1CCN(c2ccc(Nc3ncc4cc(C(=O)N(C)C)n(C56CC(C5)C6)c4n3)cc2)CC1 (single isomer, unassigned)"
property = "pIC50"
test_value = 5.82

[[record]]
compound = "CN(C)CCOc1ccc(Nc2ncc3cc(C(=O)N(C)C)n(C45CC(C4)C5)c3n2)cc1"
property = "pIC50"
test_value = 5.47


// moving on: another record for pIC50
Give the reported pIC50 for this compound. CN(C)C(=O)c1cc2cnc(Nc3ccc(N4CCN(CCO)CC4)c(F)c3)nc2n1C12CC(C1)C2
6.03
